# MEASUREMENT TARGET: UniProt:P34972
# TEST SUMMARY: Displacement of [3H]CP-55,940 from human recombinant CB2R expressed in HEK-293 cells after 90 mins by liquid scintillation counting
I'd appreciate it if you could supply log10 Ki values for the items below.
Base-10 log of Ki, unit nM.

COMPOUND	log10 Ki
CCCCn1c(=O)c(C(=O)NC2CCC(C)CC2)cc2cccnc21 (stereo not given)	0.59
CC1CCC(NC(=O)c2cc3cccnc3n(CCCCCF)c2=O)CC1 (stereo not given)	-0.25
CC1CCC(NC(=O)c2cc3cccnc3n(CCCCCCO)c2=O)CC1 (stereo not given)	1.26

State recorded log10 Ki for all listed compounds.
1. C[C@H]1CC[C@H](NC(=O)c2cc3cc(-c4ccco4)cnc3n(Cc3ccc(F)cc3)c2=O)CC1
2. CC1CCC(NC(=O)c2cc3cc(-c4ccc(F)cc4)cnc3n(Cc3ccc(F)cc3)c2=O)CC1 (stereo not given)

1: 1.97; 2: 0.34

* * *

Assignment: determine reported Ki for the given compounds.
# MEASUREMENT TARGET: Cannabinoid receptor 1 (Homo sapiens, UniProt P21554)
# Sequence (P21554 whole entry): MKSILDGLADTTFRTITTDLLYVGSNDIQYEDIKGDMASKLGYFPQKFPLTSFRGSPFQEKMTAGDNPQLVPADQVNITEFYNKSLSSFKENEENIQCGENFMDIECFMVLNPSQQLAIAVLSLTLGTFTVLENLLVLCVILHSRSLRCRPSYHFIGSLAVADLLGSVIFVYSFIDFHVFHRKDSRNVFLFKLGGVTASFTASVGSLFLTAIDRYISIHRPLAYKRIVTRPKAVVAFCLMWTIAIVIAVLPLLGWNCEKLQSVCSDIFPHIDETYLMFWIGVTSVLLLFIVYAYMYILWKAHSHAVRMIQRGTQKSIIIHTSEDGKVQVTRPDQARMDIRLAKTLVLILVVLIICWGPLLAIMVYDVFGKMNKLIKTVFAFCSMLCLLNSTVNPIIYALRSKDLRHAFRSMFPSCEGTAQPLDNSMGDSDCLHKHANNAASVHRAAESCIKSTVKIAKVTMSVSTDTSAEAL
# TEST SUMMARY: Displacement of [3H]CP-55,940 from human recombinant CB1R expressed in HEK-293 cells after 90 mins by liquid scintillation counting

Some entries whose results are on file:
COMPOUND	MEASUREMENT TARGET	Ki
CCOC(=O)CCn1c(=O)c(C(=O)NC2CCC(C)CC2)cc2cccnc21 (stereo not drawn)	Cannabinoid receptor 1 (Homo sapiens, UniProt P21554)	> 10 µM
CC1CCC(NC(=O)c2cc3cc(-c4ccc(F)cc4)cnc3n(Cc3ccc(F)cc3)c2=O)CC1 (stereo not drawn)	Cannabinoid receptor 1 (Homo sapiens, UniProt P21554)	> 10 µM

API: the following record is the query input.
Reported Ki, compound CC1CCC(NC(=O)c2cc3cccnc3n(CCC(=O)O)c2=O)CC1 (stereo not drawn) : ____
> 10 µM

* * *

# MEASUREMENT TARGET: Cannabinoid receptor 2 (Homo sapiens)
# Sequence (P34972 whole entry): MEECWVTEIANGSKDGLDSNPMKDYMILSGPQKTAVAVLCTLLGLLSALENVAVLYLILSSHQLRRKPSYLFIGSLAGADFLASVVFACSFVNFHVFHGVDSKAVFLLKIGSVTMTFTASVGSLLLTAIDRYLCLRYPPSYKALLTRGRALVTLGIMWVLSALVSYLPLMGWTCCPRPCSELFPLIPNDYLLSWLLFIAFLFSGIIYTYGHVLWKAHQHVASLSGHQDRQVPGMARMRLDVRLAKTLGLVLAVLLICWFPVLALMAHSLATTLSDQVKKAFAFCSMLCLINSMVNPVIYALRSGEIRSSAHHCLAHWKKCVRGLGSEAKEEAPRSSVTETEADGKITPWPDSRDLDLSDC
# TEST SUMMARY: Displacement of [3H]CP-55,940 from human recombinant CB2R expressed in HEK-293 cells after 90 mins by liquid scintillation counting
pKi: −log10 of the molar value.
# cutoff 9 applies to pKi; >= gives 1, < gives -1

Worked examples, 4 molecules total:
MOLECULE	CAT
CC1CCC(NC(=O)c2cc3cc(-c4cccs4)cnc3n(CCN3CCOCC3)c2=O)CC1 (stereo not drawn)	1
CC1CCC(NC(=O)c2cc3cccnc3n(CCO)c2=O)CC1 (stereo not drawn)	-1
CCOC(=O)CCn1c(=O)c(C(=O)NC2CCC(C)CC2)cc2cccnc21 (stereo not drawn)	-1
CC1CCC(NC(=O)c2cc3cc(Br)cnc3n(Cc3ccc(F)cc3)c2=O)CC1 (stereo not drawn)	1

// inclusive: pKi at least 9? input: C[C@H]1CC[C@@H](NC(=O)c2cc3cc(-c4ccco4)cnc3n(Cc3ccc(F)cc3)c2=O)CC1
1

* * *

# MEASUREMENT TARGET: Cannabinoid receptor 2 (Homo sapiens)
# TEST SUMMARY: Displacement of [3H]CP-55,940 from human recombinant CB2R expressed in HEK-293 cells after 90 mins by liquid scintillation counting
PARAMETER: Ki (nM)
Answers are plain numbers, in nM.

Worked cases, Ki given:
COMPOUND	PARAMETER	NUMBER
CC1CCC(NC(=O)c2cc3cc(-c4ccco4)cnc3n(Cc3ccc(F)cc3)c2=O)CC1 (stereo not drawn)	Ki	0.67
C[C@H]1CC[C@@H](NC(=O)c2cc3cc(-c4cccs4)cnc3n(Cc3ccc(F)cc3)c2=O)CC1	Ki	0.96

Give its Ki value. Item: COc1ccc(-c2cnc3c(c2)cc(C(=O)NC2CCC(C)CC2)c(=O)n3CCN2CCOCC2)cc1 (stereo not drawn)
1.47
